assay system: human Bradykinin B1 receptor (Homo sapiens, UniProt P46663)
Sequence (P46663 whole entry): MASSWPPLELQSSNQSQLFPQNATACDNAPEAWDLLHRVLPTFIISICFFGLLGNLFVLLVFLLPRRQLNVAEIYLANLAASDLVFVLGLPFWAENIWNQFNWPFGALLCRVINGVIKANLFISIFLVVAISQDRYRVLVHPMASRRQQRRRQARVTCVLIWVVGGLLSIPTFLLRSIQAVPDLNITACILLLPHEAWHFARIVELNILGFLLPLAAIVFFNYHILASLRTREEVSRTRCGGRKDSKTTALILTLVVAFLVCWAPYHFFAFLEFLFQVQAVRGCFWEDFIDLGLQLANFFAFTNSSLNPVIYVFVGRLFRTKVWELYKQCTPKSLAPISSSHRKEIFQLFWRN
experiment: Calcium flux Assay (FLIPR) with cells expressing human Bradykinin B1 receptor (hB1)
run conditions: absence of 0.1% BSA in assay buffer; CHO-K1 cell line expressing human B1 receptor; agonist Lys-(Des-Arg)-Bradykinin; read-out: hB1 free IC50
readout type: pIC50
Numbers only, as −log10 of the molar value.

Guide cases for pIC50, answers given:
[
  {
    "compound": "CN(C(=O)c1ccc(NC(=O)C2(c3cccc(Cl)c3)CC2)cc1-c1nnn[nH]1)C1CCOCC1",
    "pIC50": 5.48
  },
  {
    "compound": "O=C(OC1CCCC1)c1ccc(NC(=O)C2(c3ccc(OC(F)(F)F)cc3F)CC2)cc1-c1nnn[nH]1",
    "pIC50": 8.30
  },
  {
    "compound": "CCC(C)OC(=O)c1ccc(NC(=O)C2(c3ccc(OC(F)(F)F)cc3F)CC2)cc1-c1nnn[nH]1 (racemic)",
    "pIC50": 8.52
  },
  {
    "compound": "COC1CCN(C(=O)c2ccc(NC(=O)C3(c4ccc(C(F)(F)F)cc4F)CC3)cc2-c2nnn[nH]2)CC1",
    "pIC50": 6.28
  }
]

Dear reader, for each entry below, please note its pIC50.
1. CC[C@@H](C)OC(=O)c1ccc(NC(=O)C2(c3ccc(C(F)(F)F)cc3F)CC2)cc1-c1nnn[nH]1
2. COC1CCCN(C(=O)c2ccc(NC(=O)C3(c4ccc(C(F)(F)F)cc4F)CC3)cc2-c2nnn[nH]2)C1 (racemic)
3. O=C(N[C@H]1CCOC1)c1ccc(NC(=O)C2(c3ccc(C(F)(F)F)cc3F)CC2)cc1-c1nnn[nH]1
4. O=C(c1ccc(NC(=O)C2(c3cccc(Cl)c3)CC2)cc1-c1nnn[nH]1)N1CCCCC1
5. CN(C(=O)c1ccc(NC(=O)C2(c3ccc(C(F)(F)F)cc3F)CC2)cc1-c1nnn[nH]1)C1CCOCC1

a:
8.70
6.47
5.82
6.20
6.35
